# Lookup of reported 5 uM Avg Cell # Score keyed by entry
- Tested on: RAW 264.7 macrophages
- Assay: SAFIRE macrophage assay: host toxicity (adherent macrophage count, morphology)
- Assay type: cell-based
- Particulars: 5 uM
Lab note: write the figure by itself, no unit.

Example results:
INSERT INTO assay_data (molecule, test_result) VALUES
  ('COc1ccc(OCC(O)CN2CCC(N)C2)cc1 (centres unmarked)', 116),
  ('OC(CNCCNc1nccc(C(F)(F)F)n1)COc1ccc(Cl)c(Cl)c1 (centres unmarked)', 49),
  ('OC(COc1ccc(Cl)cc1)CN1CCC(Nc2ncccn2)CC1 (centres unmarked)', 84),
  ('OC(COc1ccc(Cl)c(Cl)c1)CN1CCN(C2COC2)CC1 (centres unmarked)', 100),
  ('N=C(N)NC1CCN(CC(O)COc2ccc(Cl)c(Cl)c2)C1 (centres unmarked)', 109),
  ('OC(COc1ccccc1F)CN1CCC(Nc2nccc(C(F)(F)F)n2)CC1 (centres unmarked)', 79);

Reported 5 uM Avg Cell # Score for O=C1OC(COc2ccc(Cl)c(Cl)c2)CN1C1CCNC1 (centres unmarked) was 95

Reported 5 uM Avg Cell # Score for OC(COc1ccc(F)c(F)c1)CN1CCC(Nc2ncccn2)CC1 (centres unmarked) was 100

Reported 5 uM Avg Cell # Score for CC(=O)N(C)C1CCN(CC(O)COc2ccc(Cl)c(Cl)c2)CC1 (centres unmarked) was 86

Reported 5 uM Avg Cell # Score for COc1ccc(OCC(O)CN2CCC(Nc3ncccn3)CC2)cc1 (centres unmarked) was 74

Reported 5 uM Avg Cell # Score for OC(COc1ccc(Cl)c(Cl)c1)CN1CCC(N2CCOCC2)C1 (centres unmarked) was 75

Reported 5 uM Avg Cell # Score for OC(COc1cc(Cl)cc(Cl)c1)CN1CCC(Nc2nccc(C(F)(F)F)n2)C1 (centres unmarked) was 101

Reported 5 uM Avg Cell # Score for N#Cc1ccc(OCC(O)CN2CCC(Nc3nccc(C(F)(F)F)n3)C2)cc1 (centres unmarked) was 91

Reported 5 uM Avg Cell # Score for COCCCN(C)C1CCN(CC(O)COc2ccc(Cl)c(Cl)c2)CC1 (centres unmarked) was 131
